Give measured IC50 for each item. Keep answers brief.
Biological target: 5-hydroxytryptamine receptor 2A (Homo sapiens, UniProt P28223)
Sequence (P28223 whole entry): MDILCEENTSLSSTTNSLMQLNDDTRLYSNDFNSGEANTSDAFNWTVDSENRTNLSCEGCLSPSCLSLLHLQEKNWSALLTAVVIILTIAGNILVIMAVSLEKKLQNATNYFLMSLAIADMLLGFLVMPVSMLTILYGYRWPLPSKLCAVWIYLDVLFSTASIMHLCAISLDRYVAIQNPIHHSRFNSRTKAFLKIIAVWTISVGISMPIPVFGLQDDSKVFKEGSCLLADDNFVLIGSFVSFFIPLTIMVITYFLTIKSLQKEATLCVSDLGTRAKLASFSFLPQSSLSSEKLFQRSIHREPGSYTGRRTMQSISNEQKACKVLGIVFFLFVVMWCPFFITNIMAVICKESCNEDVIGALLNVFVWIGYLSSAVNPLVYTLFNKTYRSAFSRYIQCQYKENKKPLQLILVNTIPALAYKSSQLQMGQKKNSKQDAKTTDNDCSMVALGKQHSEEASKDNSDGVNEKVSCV
Test: Modulation of human 5HT2A expressed in HEK293T cells co-transfected with Galphaq-RLuc8, Ggamma1-GFP2 and Gbeta1 assessed as dissociation of Galphaq from Ggamma1 preincubated for 1 hr followed by addition of coelenterazine 400a substrate and measured after 15 mins by BRET assay

Challenge: Give the value of IC50 reported for the following: CN(C)CCc1cn(C)c2cccc(O)c12
Response given: 86.3 nM

Challenge: Give the value of IC50 reported for the following: CN(C)CCc1cn(CCF)c2cccc(O)c12
Response given: 188 nM

Challenge: Give the value of IC50 reported for the following: CCn1cc(CCN(C)C)c2c(O)cccc21
Response given: 196 nM

This collection of values is drawn from ChEMBL document CHEMBL5055687.
